// data source = the COVID Moonshot data (paper PMC11187573)

target entity: SARS-CoV-2 Main Protease (SARS-CoV-2) (UniProt P0DTD1)
test parameters: 20.0 µM
Measured inhibition, listed per entry.
Supply the numeric figure in %, leaving out any unit text.

Before answering, review these 5 worked examples.
| compound | unit abbrev | inhibition |
| --- | --- | --- |
| COC1(CC(=O)Nc2cnccc2C)CC1 | % | -5.47 |
| C=CC(=O)N(c1ccc(C(C)(C)C)cc1)C(C(=O)Nc1ccc(F)cc1)c1cccnc1 (centres undefined) | % | 17 |
| C=CC(=O)N(c1ccc(C(C)(C)C)cc1)C(C(=O)NC(C)(C)C)c1cncc(Cl)c1 (centres undefined) | % | 34.6 |
| CC(=O)/C(C#N)=C(\O)Nc1ccc(C(F)(F)F)cc1 | % | -2.89 |
| CC(C)(C)NC(=O)C(c1cccnc1)N(C(=O)c1ccco1)c1ccc(C(C)(C)C)cc1 (centres undefined) | % | 74 |

Req: Determine from records and report inhibition for "CCOc1ccccc1/C=C1/C(=O)NC(=O)c2ccccc21"
Resp: -36.4

Req: Quote inhibition reported for "COc1ccc2[nH]cc(CCNS(C)(=O)=O)c2c1" please.
Resp: -4.19

Req: Entry O=C(Nc1nncn1C1CC1)C1CCOc2ccccc21 (centres undefined) needs its inhibition filled in; supply it.
Resp: -1.27

---

As a worked illustration, we turn to pIC50 data collected for trypsin (UniProt P07477).
The read-out pIC50 is expressed as -log10 of concentration in moles per litre.

| compound | pIC50 |
| --- | --- |
| O=C(CCl)N1CCN(Cc2cc(Cl)ccc2CNC(=O)N2CCOCC2)CC1 | 4.80 |
| C=CC(=O)N(c1ccc(C2(C)CC2)cc1)C(C(=O)Nc1ccc(Br)cc1)c1cccnc1 (stereo not given) | 4.24 |
| C=CC(=O)N(c1ccc(C(C)(C)C)cc1)C(C(=O)Nc1ccc2c(c1)OCO2)c1cccnc1 (stereo not given) | 4.14 |
| COc1cc(CN2CCN(C(=O)CCl)CC2)c2ccccc2c1 | 4.09 |

Kindly consider the entry below.
Req: Quote pIC50 reported for "O=C(CCl)N1CCCc2cc(NCc3ccc(F)cc3Cl)ccc21" please.
Resp: 4.29

---

Listed below: IC50 values for each entry.
target entity: SARS-CoV-2 Main Protease (SARS-CoV-2) (UniProt P0DTD1)
Remember to put the unit after the number in your answer.

| compound | target entity | IC50 |
| --- | --- | --- |
| Cc1ccncc1NC(=O)Cc1cc(Cl)cc(/C=C(/c2ccccc2)C(F)(F)F)c1 | SARS-CoV-2 Main Protease (SARS-CoV-2) (UniProt P0DTD1) | 15.3 µM |
| O=C1C(=O)N(Cc2ccc(Br)cc2)c2c(Br)cccc21 | SARS-CoV-2 Main Protease (SARS-CoV-2) (UniProt P0DTD1) | 0.485 µM |
| CN(C)c1ccc(N(Cc2ccsc2)C(=O)Cn2nnc3ccccc32)cc1 | SARS-CoV-2 Main Protease (SARS-CoV-2) (UniProt P0DTD1) | 5.37 µM |
| C=CC(=O)N(c1ccc(I)cc1)C(C(=O)Nc1ccc(Cl)cc1)c1cncnc1 (stereo unspecified) | SARS-CoV-2 Main Protease (SARS-CoV-2) (UniProt P0DTD1) | 2.75 µM |
| O=C(CCl)N1CCN(S(=O)(=O)c2cccs2)CC1 | SARS-CoV-2 Main Protease (SARS-CoV-2) (UniProt P0DTD1) | 0.557 µM |

Consider the record given below.
Req: Provide the reported IC50 (system: SARS-CoV-2 Main Protease (SARS-CoV-2) (UniProt P0DTD1)) for "Cc1nc(CN2C(=O)C(=O)c3cc(Br)ccc32)cs1"
Resp: 18 µM

---

target entity: SARS-CoV-2 Main Protease (SARS-CoV-2) (UniProt P0DTD1)
test parameters: 50.0 µM
Entries annotated with measured inhibition
Express the result in % but write the number alone.

Req: Give the reported inhibition for this compound. "Cc1ccc(NC(=O)Nc2cccnc2)s1"
Resp: 28.6

---

target entity: SARS-CoV-2 Main Protease (SARS-CoV-2)
test parameters: 20.0 µM
# reported inhibition; entries follow
Give the value in % but do not write % after it.

Take a look at these entries with their results.
| compound | unit abbrev | inhibition |
| --- | --- | --- |
| Cc1ccncc1NC(=O)CN1C(=O)COc2ccc(Cl)cc21 | % | 32.8 |
| CNc1ccc(N(Cc2ccsc2)C(=O)Cn2nnc3ccccc32)cc1 | % | 57.1 |
| O=C(Nc1nnc(-c2ccccn2)o1)C1CCN(S(=O)(=O)c2ccc(F)cc2)CC1 | % | 3.87 |
| C=CC(=O)N(c1ccc(C(C)OC)cc1)C(C(=O)NC(C)(C)C)c1cccnc1 (centres undefined) | % | 7.07 |

Req: Kindly indicate its recorded inhibition. Item: "Cc1cnc2c(-c3ccc4[nH]ncc4c3)c(-c3ccc(F)cc3)nn2c1"
Resp: -1.68

Req: Return inhibition (reported value) for this compound: Cc1cccc(C)c1OCC(=O)N[C@@H](Cc1ccccc1)[C@@H](O)C[C@H](Cc1ccccc1)NC(=O)[C@H](C(C)C)N1CCCNC1=O (stereo in doubt)
Resp: 7.22

Req: Let me know recorded inhibition for Cc1nnc(CNC(=O)C2CCOc3ccc(Cl)cc32)n1C1CC1 (centres undefined) , thanks.
Resp: 6.91

Req: Quick one: give measured inhibition for C=CC(=O)N1CCCC(N(CC2CCCCC2)C2CCC(O)CC2)C1 (centres undefined)
Resp: -4.47

Req: Please give the documented inhibition of "Cc1ccnc(C)c1NC(=O)NCc1cccc(N2CCOCC2)c1"
Resp: 2.7

Req: Tell me measured inhibition for "O=C(Cn1nnc2ccccc21)N(Cc1ccsc1)c1ccc(-c2ccccc2)cc1" please.
Resp: 30.4

Req: Consider the compound "COc1cc(OC)cc(Oc2cccc(CNC(=O)Cn3nnc4ccccc43)c2)c1" . State its measured inhibition.
Resp: -3.39

Req: Supply measured inhibition of CC(C)c1scnc1NC(=O)C1CCOc2ccc(Cl)cc21 (centres undefined) in your reply.
Resp: 10

---

test parameters: 100.0 µM
property label: relative solubility at 100 uM

Solved cases (3 shown):
| compound | relative solubility at 100 uM |
| --- | --- |
| NS(=O)(=O)c1ccc(N2CCSCC2)cc1 | 1 |
| CCCC(C(=O)Nc1cnccc1C)c1cccc(Cl)c1 (stereo not given) | 0.99 |
| CCC(=O)Nc1cccc(OC2CC(=O)N2)c1 (stereo not given) | 1.01 |

Req: Report measured relative solubility at 100 uM; entry is O=C(CCl)NC(CO)c1cccc(Cl)c1 (stereo not given)
Resp: 0.99

Req: For the compound C=CC(=O)N(c1ccc(C(C)(C)C)cc1)C(C(=O)NCCCOC)c1cccnc1 (stereo not given) , give its reported relative solubility at 100 uM.
Resp: 0.98

Req: Fill in reported relative solubility at 100 uM for this entry: "Cc1ccc(S(=O)(=O)NC2CCN(C(=O)CCl)CC2)cc1"
Resp: 1.01

Req: Please supply the value of reported relative solubility at 100 uM for the item "COc1cc(CNC(=O)Cc2ncc[nH]2)c2ccccc2n1"
Resp: 1

Req: Respond only with relative solubility at 100 uM recorded for "Cc1ccncc1NC(=O)C12CC(CO1)C2"
Resp: 1

Req: Give the reported relative solubility at 100 uM for this compound. O=C1CN(c2nnc(C3CCC(=O)N3)n2CCn2cc(Cl)cn2)CCN1 (stereo not given)
Resp: 1

Req: Answer with the recorded relative solubility at 100 uM for the compound listed here: C=CC(=O)N(c1ccc(C(C)(C)C)cc1)C(C(=O)Nc1ccc(OC)cc1)c1cccnc1 (stereo not given)
Resp: 0.71

Req: Write down relative solubility at 100 uM measured for item COC(=O)C(c1ccccc1Cl)N1CCC2SC(=O)C=C2C1 (stereo not given)
Resp: 0.81

Req: Retrieve relative solubility at 100 uM measured for "COc1ccccc1OCCN(C)C(=O)c1cc(=O)[nH]c2ccc(Cl)cc12" and print it.
Resp: 0.99

Req: Given the compound "O=C(CCl)N1CCN(Cc2nc(-c3cccs3)no2)CC1" , write its reported relative solubility at 100 uM.
Resp: 0.93

---

target entity: UniProt P0DTD1
test parameters: 50.0 µM
The entries below come with measured inhibition values attached.
Dear colleague, please return just the value in %, with no unit written.

The examples below pair each entry with its known result.
| compound | target entity | inhibition, % |
| --- | --- | --- |
| C=CC(=O)N1CC(NCc2c[nH]c3ccc(C#N)cc23)C1 | UniProt P0DTD1 | 15.4 |
| Cc1[nH]c2ncnc(NC(=O)C3CCN(c4ccc(Cl)cn4)CC3)c2c1C | UniProt P0DTD1 | -5.21 |
| O=C(c1cc(=O)[nH]c2ccccc12)N1CCN(S(=O)(=O)c2ccccc2)CC1 | UniProt P0DTD1 | 40.7 |

Please find the next compound below.
Req: Answer with reported inhibition of CC1CCCC(OCc2cccc(NC(=O)NC(C)c3ccn[nH]3)c2)C1 (configuration not stated)
Resp: -40.1
